Experimental System: T1, human TIM-3 on CHOK1 stable cell line (CHOK1-hTIM-3) (human, UniProt Q8TDQ0 22-301)
T1 sequence: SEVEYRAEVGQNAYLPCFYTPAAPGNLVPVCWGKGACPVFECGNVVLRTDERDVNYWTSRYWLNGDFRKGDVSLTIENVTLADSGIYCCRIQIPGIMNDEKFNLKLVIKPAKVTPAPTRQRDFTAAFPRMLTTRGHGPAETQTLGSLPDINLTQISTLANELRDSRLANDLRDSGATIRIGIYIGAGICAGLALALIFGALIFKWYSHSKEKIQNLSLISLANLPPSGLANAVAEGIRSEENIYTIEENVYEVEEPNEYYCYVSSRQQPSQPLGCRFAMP
Assay Notes: FACS, CHOK1-hTIM-3 cells, 0.013 nM antibody
Listed binders paired with reported Mean fluorescence intensity
Write no unit; give the number alone.

Solved cases (2 shown):
18D2H2 fully human TIM-3 antibody (human IgG4, kappa) (antibody, V domains shown) VH: EVQLVESGGDLVQPGGSLRLSCAASGFTFSTYWMTWVRQAPGRGLEWVANIKQDGSAKYYVDSVKGRFTLSRDDAKNSLYLQMNSLRAEDTAVYYCARGSNWFDYWGQGTLVTVSS VL: ETVMTQSPATLSVSPGERATLSCRANQNVYSNLAWYQQKPGQAPRLLIYDASTRATGFPARFSGSGSGTEFTLTISSLQSEDFAVYYCQQYNNWPLTFGGGTKVEIK ... 11.6
134H3G6 fully human TIM-3 antibody (human IgG4, kappa) (antibody, V domains shown) VH: EVQLVESGGGLVQPGGSLRLSCAASGFTFSNSWMTWVRQAPGKGLEWVANIKQAGTEKYYVDSVKGRFTISRDNAKNSLYLQMNSLRAEDTAVYYCNSGSNYFDYWGQGTLVTVSS VL: EIVMTQSPATLSVSPGERATLSCRARQNFYSNLAWYQQKPGQAPRLLIYGASTRATGIPARFSGSGSGTEFTLTISSLQSEDFAVYYCQQYNNWPLTFGGGTKVEIK ... 13.5

In the following, a different binder is considered.
Prompt: Reported Mean fluorescence intensity, binder 57F4E5 fully human TIM-3 antibody (human IgG4, kappa) (antibody, V domains shown) VH: EVQLVESGGGLVQPGGSLRLSCAASGFTFSSYWMSWVRQAPGKGLEWVANIKQDGSEKYYVDSVKGRFTISRDSAKNSLYLQMNSLRAEDTAMYFCARDSNFFDYWGQGTLVTVSS VL: ETVMTQSPATLSVSPGERATLSCRASQSVSSNLAWYQRKPGQAPRLLIYFSSTRATGIPARFSGSGSGTEFTLTISSLQSEDFAVYYCQQYNNWPLTFGGGTKVEIK : ____
Response: 9.6
